system: K562; test: NCI tumour cell line growth inhibition, 48 h
Calls of active or inactive are those of the source. Rule as the data show it: active = GI50 up to about 1.1 µM and inactive = higher.
The reply should name one outcome from y (active), n (inactive)

# Compound, Cat
measured = [
    ("O=C(Cn1c2ccc(Br)cc2c2nc3ccccc3nc21)N1CCOCC1", "n"),
    ("CN1CCCN2CCN(C)CCN(CC1)CC2", "n"),
]

Qu. In this assay, the call recorded for CC(C)CC(C#CCCOC(=O)c1ccccc1)OC(=O)c1ccccc1 (stereo not drawn) was what?
Ans. n

Qu. Repeat for the following compound: CN1C/C(=C\C=C\c2ccccc2)C(=O)/C(=C/C=C/c2ccccc2)C1
Ans. n

Qu. Repeat for the following compound: CC(=O)OCC12CC(CC1OC(C)=O)c1ccccc12 (stereo not drawn)
Ans. n

Qu. Repeat for the following compound: CCOC(=O)N1CCN(Cc2cc(=O)n3ccc(C)cc3n2)CC1
Ans. n

Qu. Repeat for the following compound: CS(=O)(=O)N(CCC#N)c1ccc(/C=N/NC(=O)CC(=O)Nc2cccc(Cl)c2)cc1
Ans. n

Qu. Repeat for the following compound: CCCN(CCC)C(=O)Cc1c2n(c3ccccc13)CCCc1ccccc1-2
Ans. n

Qu. Repeat for the following compound: COC1C=C(Nc2cccc(Cl)c2)C(=O)C1 (stereo not drawn)
Ans. n

Qu. Repeat for the following compound: C=C1c2nc3ccccc3n2C=C(c2ccccc2)N1c1ccc(OC)cc1
Ans. n

Qu. Repeat for the following compound: O=[N+]([O-])c1ccc2c(c1)nc(Cc1ccccc1)n2C[C@@H]1CCCN2CCCCC12 (stereo partly drawn)
Ans. n

---

tested on: RPMI-8226; assay: NCI tumour cell line growth inhibition, 48 h
The source made the active and inactive calls. No stated cut-off is given here; in the data, active = GI50 up to about 1.1 µM and inactive = higher.
The reply should name one outcome from active, inactive

Qu. In this assay, the call recorded for Cc1cc(-c2ccccc2)nc(Nc2nc3ccccc3o2)n1 was what?
Ans. inactive

---

tested on: MDA-N; assay: NCI tumour cell line growth inhibition, 48 h
Activity calls are given as the source filed them. Rule as the data show it: active = GI50 up to about 1.1 µM and inactive = higher.
GI50 listing for selected compounds.

Look over these answered cases.
# Compound, GI50
data = [
    ("CCOC(=O)C(NC(=O)CC)(Nc1cc(C)on1)C(F)(F)F (stereo not given)", "> 100 µM (inactive)"),
    ("Cn1c(=N)n[n+]([O-])c2ccccc21", "1.9 µM (inactive)"),
    ("CC(=O)/N=C1\\C=C(NC(C)=O)C(=O)c2ccccc21", "1.9 µM (inactive)"),
    ("C/C(=N\\NC(=S)N1CCN(c2ccccn2)CC1)c1ncccn1", "6.93 µM (inactive)"),
]

Qu. What does the data say about its GI50? Entry: O=C(COc1ccc(OCC(=O)N2C(=O)CN(c3ccccc3)C2=S)cc1)N1C(=O)CN(c2ccccc2)C1=S
Ans. > 63.1 µM (inactive)

Qu. Repeat for the following compound: C=C1C(=O)O[C@@H]2[C@H]1C[C@@H](O)[C@H](C)[C@@](O)(C(=O)/C=C/C)[C@H]2OC(=O)C(C)CC (stereo not given in full)
Ans. 3.08 µM (inactive)

Qu. Repeat for the following compound: COc1ccc(/C=C2\CCC(C)c3c2nc(N)c(C#N)c3-c2ccc(OC)c(OC)c2)cc1OC (stereo not given)
Ans. 33.4 µM (inactive)

Qu. Repeat for the following compound: COC(C)(C)CCc1[nH]c2ccccc2c1CC(=O)NCCc1cncn1C
Ans. > 100 µM (inactive)

Qu. Repeat for the following compound: N#Cc1sc2nc3ccccc3n2c1N
Ans. > 100 µM (inactive)

Qu. Repeat for the following compound: CNc1ccc(N)cc1C(=O)N1CCC[C@H]1CO
Ans. > 100 µM (inactive)

Origin of the recorded values: ChEMBL document CHEMBL1201862
